Entry source: patent US6855713B2

# system: rh beta trypsin (Homo sapiens, UniProt P20231)
# Construct: purchased Promega
# Sequence (P20231 31-275): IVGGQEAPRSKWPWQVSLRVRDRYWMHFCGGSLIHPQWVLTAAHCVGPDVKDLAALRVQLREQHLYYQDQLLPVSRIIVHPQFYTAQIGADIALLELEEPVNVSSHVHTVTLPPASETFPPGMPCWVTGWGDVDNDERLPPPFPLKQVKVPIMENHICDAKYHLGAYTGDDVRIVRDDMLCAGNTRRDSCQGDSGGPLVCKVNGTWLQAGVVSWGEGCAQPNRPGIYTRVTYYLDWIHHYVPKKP
# experiment_summary: Trypsin (tryptase) inhibition, cleavage of N-p-Gly-Pro-Lys-para-nitroaniline measured at 405 nm
# Assay type: biochemical
# test_context: in vitro; tris-HCl buffer pH 7.4 with calcium and heparin; substrate 0.6 mM; 5 minutes, 37° C.; read-out: Trypsin-inhibiting property
pIC50: −log10 of the molar value.
Entries and their pIC50
reported_endpoint: pIC50

>>> print(df.to_string())
                                    compound     meas_value
 0  CSc1cccc(NC(=O)NC2CCN(C(=O)c3ccc4c(c3)nc(CCc3ccc(C(=N)N)cc3)n4C)CC2)c1  9.00 to 10.00
 1  Cc1cccc(NC(=O)NC2CCN(C(=O)c3ccc4c(c3)nc(CCc3ccc(C(=N)N)cc3)n4C)CC2)c1   7.70 to 9.00
 2  Cn1c(CCc2ccc(C(=N)N)cc2)nc2cc(C(=O)N3CCC(NC(=O)Nc4c(F)cccc4F)CC3)ccc21   7.70 to 9.00
 3  Cn1c(CCc2ccc(C(=N)N)cc2)nc2cc(C(=O)N3CCC(NC(=O)Nc4ccccc4Br)CC3)ccc21  9.00 to 10.00
 4  Cn1c(CCc2ccc(C(=N)N)cc2)nc2cc(C(=O)N3CCC(NC(=O)Nc4ccc(Br)cc4)CC3)ccc21   7.70 to 9.00
 5  CCCCS(=O)(=O)NC1CCN(C(=O)c2ccc3c(c2)nc(CCc2ccc(C(=N)N)cc2)n3C)CC1   7.30 to 7.70
 6  Cn1c(CCc2ccc(C(=N)N)cc2)nc2cc(C(=O)N3CCC(NC(=O)Nc4cccc(F)c4)CC3)ccc21   7.70 to 9.00
 7  Cn1c(CCc2ccc(C(=N)N)cc2)nc2cc(C(=O)N3CCC(NC(=O)Nc4cccc(C(F)(F)F)c4)CC3)ccc21   7.70 to 9.00
 8  CCOCCCn1c(CCc2ccc(C(=N)N)cc2)nc2cc(C(=O)N3CCC(NC(=O)Nc4ccccc4)CC3)ccc21   7.70 to 9.00
 9  Cn1c(CCc2ccc(C(=N)N)cc2)nc2cc(C(=O)N3CCC(NC(=O)Cc4cccc5ccccc45)CC3)ccc21   7.70 to 9.00
10  Cn1c(CCc2ccc(C(=N)N)cc2)nc2cc(C(=O)N3CCC(NC(=O)Nc4cccc5ccccc45)CC3)ccc21   7.70 to 9.00
11  Cn1c(CCc2ccc(C(=N)N)cc2)nc2cc(C(=O)N3CCN(C/C=C/c4ccccc4)CC3)ccc21   7.70 to 9.00
12  Cn1c(CCc2ccc(C(=N)N)cc2)nc2cc(C(=O)N3CCC(NC(=O)c4cccc(Cl)c4Cl)CC3)ccc21 [Example 49]   7.70 to 9.00
13  Cn1c(CCc2ccc(C(=N)N)cc2)nc2cc(C(=O)N3CCC(NC(=O)Nc4ccccc4Cl)CC3)ccc21  9.00 to 10.00
14  Cn1c(CCc2ccc(C(=N)N)cc2)nc2cc(C(=O)N3CCC(NC(=O)Nc4cccc(Br)c4)CC3)ccc21  9.00 to 10.00
15  Cn1c(CCc2ccc(C(=N)N)cc2)nc2cc(C(=O)N3CCC(NC(=O)Nc4ccc(F)cc4F)CC3)ccc21   7.70 to 9.00
16  Cn1c(CCc2ccc(C(=N)N)cc2)nc2cc(C(=O)N3CCC(NC(=O)Nc4ccc(F)cc4)CC3)ccc21   7.70 to 9.00
17  Cn1c(CCc2ccc(C(=N)N)cc2)nc2cc(C(=O)N3CCC(Nc4cccc(Cl)c4Cl)CC3)ccc21   7.70 to 9.00
18  N=C(N)c1ccc(CCc2nc3cc(C(=O)N4CCC(NC(=O)c5ccccc5)CC4)ccc3n2C2CC2)cc1   7.30 to 7.70
19  Cn1c(CCc2ccc(C(=N)N)cc2)nc2cc(C(=O)N3CCC(NC(=O)c4cccc(Cl)c4)CC3)ccc21  9.00 to 10.00
20  Cc1c(Cl)cccc1S(=O)(=O)N(C)C1CCN(C(=O)c2ccc3c(c2)nc(CCc2ccc(C(=N)N)cc2)n3C)CC1   7.70 to 9.00
21  Cn1c(CCc2ccc(C(=N)N)cc2)nc2cc(C(=O)N3CCC(NC(=O)Nc4ccc(C(F)(F)F)cc4)CC3)ccc21   7.70 to 9.00
22  Cn1c(CCc2ccc(C(=N)N)cc2)nc2cc(C(=O)N3CCC(NS(=O)(=O)/C=C/c4ccccc4)CC3)ccc21   7.70 to 9.00
23  Cn1c(CCc2ccc(CN)cc2)nc2cc(C(=O)N3CCC(NC(=O)c4ccccc4)CC3)ccc21   7.70 to 9.00
24  Cn1c(CCc2ccc(C(=N)N)cc2)nc2cc(C(=O)N3CCC(NC(=O)Nc4ccc(Cl)cc4)CC3)ccc21   7.70 to 9.00
25  Cn1c(CCc2ccc(C(=N)N)cc2)nc2cc(C(=O)N3CCC(NC(=O)Nc4cccc(C(=O)O)c4)CC3)ccc21   7.70 to 9.00
26  Cn1c(CCc2ccc(C(=N)N)cc2)nc2cc(C(=O)N3CCC(NC(=O)Nc4ccc5ccccc5c4)CC3)ccc21   7.70 to 9.00
27  COC(=O)c1cccc(NC(=O)N(C)C2CCN(C(=O)c3ccc4c(c3)nc(CCc3ccc(C(=N)N)cc3)n4C)CC2)c1   7.70 to 9.00

====

Entries and their pIC50
# system: rh beta trypsin (Homo sapiens, UniProt P20231)
# Construct: purchased Promega
# experiment_summary: Trypsin (tryptase) inhibition, cleavage of N-p-Gly-Pro-Lys-para-nitroaniline measured at 405 nm
# Type: biochemical
# test_context: in vitro; tris-HCl buffer pH 7.4 with calcium and heparin; substrate 0.6 mM; 5 minutes, 37° C.; read-out: Trypsin-inhibiting property
pIC50: −log10 of the molar value.
reported_endpoint: pIC50

>>> df
                                  structure  reported_endpoint     meas_value
0  Cn1c(CCc2ccc(C(=N)N)cc2)nc2cc(C(=O)N3CCC(NC(=O)c4cc(Cl)ccc4Cl)CC3)ccc21              pIC50  9.00 to 10.00
1  Cn1c(CCc2ccc(C(=N)N)cc2)nc2cc(C(=O)N3CCC(NC(=O)Nc4ccc(Cl)cc4Cl)CC3)ccc21              pIC50   7.70 to 9.00
2  CN(C1CCN(C(=O)c2ccc3c(c2)nc(CCc2ccc(C(=N)N)cc2)n3C)CC1)S(=O)(=O)c1cccc2ccccc12              pIC50   7.70 to 9.00
3  CC(=O)c1cccc(NC(=O)NC2CCN(C(=O)c3ccc4c(c3)nc(CCc3ccc(C(=N)N)cc3)n4C)CC2)c1              pIC50   7.70 to 9.00
4  Cn1c(CCc2ccc(C(=N)N)cc2)nc2cc(C(=O)N3CCC(NC(=O)NC4CCCCC4)CC3)ccc21              pIC50   7.70 to 9.00
5  CN(C1CCN(C(=O)c2ccc3c(c2)nc(CCc2ccc(C(=N)N)cc2)n3C)CC1)S(=O)(=O)c1cccc(Cl)c1Cl              pIC50   7.30 to 7.70
6  CN(C1CCN(C(=O)c2ccc3c(c2)nc(CCc2ccc(C(=N)N)cc2)n3C)CC1)S(=O)(=O)/C=C/c1ccccc1              pIC50   7.70 to 9.00

====

# system: rh beta trypsin (Homo sapiens, UniProt P20231)
# Construct: purchased Promega
# experiment_summary: Trypsin (tryptase) inhibition, cleavage of N-p-Gly-Pro-Lys-para-nitroaniline measured at 405 nm
# Assay type: biochemical
# test_context: in vitro; tris-HCl buffer pH 7.4 with calcium and heparin; substrate 0.6 mM; 5 minutes, 37° C.; read-out: Trypsin-inhibiting property
pIC50: −log10 of the molar value.
Entries and their pIC50
reported_endpoint: pIC50

>>> print(df.to_string())
                                    compound     meas_value
 0  Cn1c(CCc2ccc(C(=N)N)cc2)nc2cc(C(=O)N3CCC(NC(=O)c4cccc(Cl)c4Cl)CC3)ccc21 [Example 67]  9.00 to 10.00
 1  Cn1c(CCc2ccc(C(=N)N)cc2)nc2cc(C(=O)N3CCC(NC(=O)Nc4ccccc4F)CC3)ccc21 [Example 27]  9.00 to 10.00
 2  COC(=O)c1cccc(NC(=O)NC2CCN(C(=O)c3ccc4c(c3)nc(CCc3ccc(C(=N)N)cc3)n4C)CC2)c1 [Example 57]   7.70 to 9.00
 3  Cn1c(CCc2ccc(C(=N)N)cc2)nc2cc(C(=O)N3CCC(NC(=O)c4ccccc4O)CC3)ccc21 [Example 46]   7.70 to 9.00
 4  CN(C(=O)Nc1cccc(Cl)c1Cl)C1CCN(C(=O)c2ccc3c(c2)nc(CCc2ccc(C(=N)N)cc2)n3C)CC1 [Example 55]   7.70 to 9.00
 5  Cn1c(CCc2ccc(C(=N)N)cc2)nc2cc(C(=O)N3CCC(NC(=O)Nc4cccc(Cl)c4)CC3)ccc21 [Example 60]  9.00 to 10.00
 6  COc1ccccc1NC(=O)NC1CCN(C(=O)c2ccc3c(c2)nc(CCc2ccc(C(=N)N)cc2)n3C)CC1 [Example 30]   7.70 to 9.00
 7  CN(C(=O)c1ccccc1)C1CCN(C(=O)c2ccc3c(c2)nc(CCc2ccc(C(=N)N)cc2)n3C)CC1 [Example 53]   7.70 to 9.00
 8  COc1ccccc1C(=O)NC1CCN(C(=O)c2ccc3c(c2)nc(CCc2ccc(C(=N)N)cc2)n3C)CC1 [Example 50]   7.70 to 9.00
 9  COc1cccc(NC(=O)NC2CCN(C(=O)c3ccc4c(c3)nc(CCc3ccc(C(=N)N)cc3)n4C)CC2)c1 [Example 28]  9.00 to 10.00
10  Cn1c(CCc2ccc(C(=N)N)cc2)nc2cc(C(=O)N3CCC(NC(=O)c4cccc(Br)c4)CC3)ccc21 [Example 45]  9.00 to 10.00
11  CCCCS(=O)(=O)N(C)C1CCN(C(=O)c2ccc3c(c2)nc(CCc2ccc(C(=N)N)cc2)n3C)CC1 [Example 168]   7.70 to 9.00
